testedSystem: full-length human RORγt (Homo sapiens (Human))
testDetails: RORγt (full-length human) reporter assay, conditions A or B, HEK293T cells
Format: cell-based
experimentalParameters: RORγt (FL) Reporter Assay A or B, IC50, HEK293T cells
Method: RORγt (Full-Length Human) Reporter Assay: HEK293T cells were plated at 35,000 per well in 96-well plate in medium of DMEM with 10% FBS. […] Firefly luciferase luminescence was measured using a BMG Pherastar plate reader. […] Renilla luminescence was measured using a BMG Pherastar plate reader. […] IC50s were generated by plotting final Renilla normalized data against compound concentration and percent inhibition was calculated against DMSO control. […]
The entries below come with measured pIC50 values attached.
pIC50 here: minus log base 10 of the concentration, concentration in moles per litre.

These recorded examples may help you get a feel for the data.
// fetch pIC50 for CCn1nc(C(=O)NC[C@]2(O)CC[C@@H](S(C)(=O)=O)CC2)c(Cl)c1-c1ccc(CC(C)(C)C(F)(F)F)cc1F ; system: full-length human RORγt (Homo sapiens (Human))
7.52

// fetch pIC50 for COc1cc(N[C@H](C)C(F)(F)F)ccc1-c1c(Cl)c(C(=O)NC[C@H]2CC[C@H](S(C)(=O)=O)CC2)nn1CCC#N ; system: full-length human RORγt (Homo sapiens (Human))
6.09

Next:
// fetch pIC50 for CCn1nc(C(=O)NC[C@H]2CC[C@H](S(C)(=O)=O)CC2)c(Cl)c1-c1ccc(C(O)(C(F)(F)F)C(F)(F)F)cc1OC(F)F ; system: full-length human RORγt (Homo sapiens (Human))
8.47

// fetch pIC50 for CCn1nc(C(=O)NC[C@]2(O)CC[C@@H](S(C)(=O)=O)CC2)c(Cl)c1-c1ccc(C2(O)CCC(C(F)(F)F)CC2)cc1OC(F)F (single isomer, unassigned) [Example 113] ; system: full-length human RORγt (Homo sapiens (Human))
7.21

// fetch pIC50 for COCCn1nc(C(=O)NC[C@]2(O)CC[C@@H](S(C)(=O)=O)CC2)c(Cl)c1-c1ccc(CC(C)(C)C(F)(F)F)cc1OC ; system: full-length human RORγt (Homo sapiens (Human))
7.47

// fetch pIC50 for COc1cc(CC(C)C(F)(F)F)ccc1-c1c(Cl)c(C(=O)NC[C@H]2CC[C@H](S(C)(=O)=O)CC2)nn1CCO (stereo partly drawn) ; system: full-length human RORγt (Homo sapiens (Human))
7.11

// fetch pIC50 for CCn1nc(C(=O)NC[C@H]2CC[C@H](S(C)(=O)=O)CC2)c(Cl)c1-c1ccc(C[C@@H](C)C(F)(F)F)cc1OC(F)F (single isomer, unassigned) ; system: full-length human RORγt (Homo sapiens (Human))
7.96

// fetch pIC50 for CCCn1nc(C(=O)NC[C@H]2CC[C@H](S(C)(=O)=O)CC2)c(Cl)c1-c1ccc(N[C@H](C)C(F)(F)F)cc1OC ; system: full-length human RORγt (Homo sapiens (Human))
7.57

// fetch pIC50 for C[C@H](Cc1ccc(-c2c(Cl)c(C(=O)NC[C@H]3CC[C@H](S(C)(=O)=O)CC3)nn2C)c(OC(F)F)c1)C(F)(F)F ; system: full-length human RORγt (Homo sapiens (Human))
7.64

// fetch pIC50 for CCn1nc(C(=O)NC[C@H]2CC[C@H](S(C)(=O)=O)CC2)c(Cl)c1-c1ccc(N[C@H](C)C(F)(F)F)cc1OC(F)(F)F ; system: full-length human RORγt (Homo sapiens (Human))
7.68

---

testedSystem: full-length human RORγt (Homo sapiens (Human))
testDetails: RORγt (full-length human) reporter assay, conditions A or B, HEK293T cells
Type: cell-based
experimentalParameters: HEK-293T, read-out: RORγt (FL) Reporter Assay A or B, % inhibition @ 6 μM; 6 μM compound concentration
The entries below come with measured inhibition at 6 µM values attached.
The reply must contain the numeric value and, after it, the unit.

These recorded examples may help you get a feel for the data.
State its inhibition at 6 µM for this molecule: COc1cc(N[C@H](C)C(F)(F)F)ccc1-c1c(Cl)c(C(=O)NC[C@]2(O)CC[C@@H](S(C)(=O)=O)CC2)nn1C(C)(C)C [Example 27]
105%

State its inhibition at 6 µM for this molecule: CCn1nc(C(=O)NC[C@H]2CC[C@H](S(C)(=O)=O)CC2)c(Cl)c1-c1ccc(N[C@H](C)C(F)(F)F)cc1OC(C)C [Example 207]
101%

State its inhibition at 6 µM for this molecule: CCn1nc(C(=O)NC[C@]2(O)CC[C@@H](S(C)(=O)=O)CC2)c(Cl)c1-c1ccc(CCC(F)(F)F)cc1OC [Example 39]
85%

State its inhibition at 6 µM for this molecule: CCn1nc(C(=O)NC[C@@H]2CC[C@H](S(C)(=O)=O)CO2)c(Cl)c1-c1ccc(N[C@H](C)C(F)(F)F)cc1OC (relative stereo) [Example 18]
102%

State its inhibition at 6 µM for this molecule: COc1cc(N[C@H](C)C(F)(F)F)ccc1-c1c(Cl)c(C(=O)NC[C@H]2CC[C@H](S(C)(=O)=O)CC2)nn1CCC#N [Example 129]
102%

// below: inhibition at 6 µM requested for another molecule
State its inhibition at 6 µM for this molecule: COCCn1nc(C(=O)NC[C@]2(O)CC[C@@H](S(C)(=O)=O)CC2)c(Cl)c1-c1ccc(CC(C)(C)C(F)(F)F)cc1OC [Example 186]
96%

---

testedSystem: full-length human RORγt (Homo sapiens (Human), UniProt P51449)
Sequence (P51449 other isoform, or with tags, fused parts or gaps): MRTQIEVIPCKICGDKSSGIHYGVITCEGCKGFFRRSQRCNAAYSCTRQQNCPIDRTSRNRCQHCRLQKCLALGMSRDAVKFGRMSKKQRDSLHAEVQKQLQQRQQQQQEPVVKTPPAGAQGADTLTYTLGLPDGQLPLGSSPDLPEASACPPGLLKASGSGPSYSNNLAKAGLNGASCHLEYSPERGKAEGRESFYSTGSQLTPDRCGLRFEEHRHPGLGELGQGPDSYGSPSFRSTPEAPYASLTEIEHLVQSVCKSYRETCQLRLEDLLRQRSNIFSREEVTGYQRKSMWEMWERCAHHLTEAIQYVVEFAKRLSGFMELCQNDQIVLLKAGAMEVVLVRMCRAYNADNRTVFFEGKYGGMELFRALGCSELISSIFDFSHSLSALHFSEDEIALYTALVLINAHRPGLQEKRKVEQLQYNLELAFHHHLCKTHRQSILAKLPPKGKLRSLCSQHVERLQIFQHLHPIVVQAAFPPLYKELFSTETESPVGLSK
testDetails: RORγt (full-length human) reporter assay, conditions A or B, HEK293T cells
Format: cell-based
experimentalParameters: HEK-293T; 3 μM compound concentration (footnote *); read-out: RORγt (FL) Reporter Assay A or B, % inhibition
Structures can show the parent of a compound that is named as a salt.
The entries below come with measured inhibition at 3 µM values attached.
Write the answer as a number in %, unit excluded.

These recorded examples may help you get a feel for the data.
State its inhibition at 3 µM for this compound: CCn1nc(C(=O)NC[C@]2(N)CC[C@@H](S(C)(=O)=O)CC2)c(Cl)c1-c1ccc(CC(C)(C)C(F)(F)F)cc1OC(F)F
122

State its inhibition at 3 µM for this compound: CCn1nc(C(=O)NC[C@H]2CC[C@H](S(C)(=O)=O)CC2)c(Cl)c1-c1ccc(C(O)(C(F)(F)F)C(F)(F)F)cc1OC(F)F
106

State its inhibition at 3 µM for this compound: CCn1nc(C(=O)NC[C@@]2(O)CC[C@H](S(C)(=O)=O)C[C@@H]2O)c(Cl)c1-c1ccc(C[C@H](C)C(F)(F)F)cc1OC(F)F (stereo in doubt)
103

State its inhibition at 3 µM for this compound: CCn1nc(C(=O)NC[C@]2(O)CC[C@@H](S(C)(=O)=O)C[C@H]2N)c(Cl)c1-c1ccc(CC(C)(C)C(F)(F)F)cc1OC(F)F (single isomer, unassigned) [Example 6, Hydrobromide]
117

// below: inhibition at 3 µM requested for another compound
State its inhibition at 3 µM for this compound: CCn1nc(C(=O)NC[C@]2(N)CC[C@H](S(C)(=O)=O)CC2)c(Cl)c1-c1ccc(CC(C)(C)C(F)(F)F)cc1OC(F)F
15

---

The entries below come with measured inhibition at 2 µM values attached.
testedSystem: full-length human RORγt (Homo sapiens (Human))
testDetails: RORγt (full-length human) reporter assay, conditions A or B, HEK293T cells
Type: cell-based
experimentalParameters: HEK-293T; 2 μM compound concentration; read-out: RORγt (FL) Reporter Assay A or B, % inhibition
Write the answer as a number in %, unit excluded.

These recorded examples may help you get a feel for the data.
State its inhibition at 2 µM for this molecule: CCn1nc(C(=O)NC[C@]2(O)CC[C@@H](S(C)(=O)=O)CC2)c(Cl)c1-c1ccc(CCCC(F)(F)F)cc1OC [Example 81]
89

State its inhibition at 2 µM for this molecule: CCCn1nc(C(=O)NC[C@]2(O)CC[C@@H](S(C)(=O)=O)CC2)c(Cl)c1-c1ccc(C[C@H](C)C(F)(F)F)cc1OC (single isomer, unassigned) [Example 40]
99

// below: inhibition at 2 µM requested for another molecule
State its inhibition at 2 µM for this molecule: CCn1nc(C(=O)NC[C@]2(O)CC[C@@H](S(C)(=O)=O)CC2)c(Cl)c1-c1ccc(CCC(C)C)cc1OC [Example 75]
62

---

testedSystem: human RORγt ligand binding domain (RORγt LBD) (Homo sapiens (Human))
Sequence (P51449 other isoform, or with tags, fused parts or gaps): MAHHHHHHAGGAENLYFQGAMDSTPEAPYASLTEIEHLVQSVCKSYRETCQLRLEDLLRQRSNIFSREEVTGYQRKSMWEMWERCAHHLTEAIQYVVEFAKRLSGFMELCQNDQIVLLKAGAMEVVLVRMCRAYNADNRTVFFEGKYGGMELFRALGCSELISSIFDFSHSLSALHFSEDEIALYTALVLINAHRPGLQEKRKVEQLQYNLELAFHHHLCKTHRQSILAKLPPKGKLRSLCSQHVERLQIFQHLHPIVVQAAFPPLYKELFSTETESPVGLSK
testDetails: RORγt ThermoFluor® assay (thermal shift binding)
experimentalParameters: read-out: ThermoFluor® Assay, Kd
propertyLabel: Kd (nM)
Write the answer as a number in nM, unit excluded.

State its Kd for this compound: CCn1nc(C(=O)NC[C@H]2CC[C@H](S(C)(=O)=O)CC2)c(Cl)c1-c1ccc(N[C@H](C)C(F)(F)F)cc1OC(F)(F)F
1.2

Next:
State its Kd for this compound: C[C@H](Cc1ccc(-c2c(Cl)c(C(=O)NC[C@H]3CC[C@H](S(C)(=O)=O)CC3)nn2C)c(OC(F)F)c1)C(F)(F)F
1.6

State its Kd for this compound: CCn1nc(C(=O)NC[C@H]2CC[C@H](S(C)(=O)=O)CC2)c(Cl)c1-c1ccc(CC(C)(C)C(F)(F)F)cc1C
1
